Test system: ACHN renal
experiment: NCI-60 one-dose screen, 48 h
runConditions: 10 µM unless noted
About 83,000 compounds went through this panel and 20% of them were active in at least one assay; those are over-represented in the sample as a whole. Calls of active or inactive are those of the source. The calls were made as follows: active = growth percent below 10; inactive = the rest.
Labels: active, inactive

>  <cpdSmiles>
CN1CCN(Cc2cc(NC(=O)c3cccc(C#Cc4cccc5[nH]nc(N)c45)c3)cc(C(F)(F)F)c2)CC1

>  <assignedClass>
active

$$$$
>  <cpdSmiles>
CC[C@]12C=CCN3CC[C@@]4(c5ccc(OC)cc5N(C)[C@H]4[C@@](O)(C(=O)OC)[C@@H]1OC(=O)CCCN1CCOCC1)[C@@H]32

>  <assignedClass>
inactive

$$$$
>  <cpdSmiles>
CCOC(=O)c1c(NC(=O)CSc2n[nH]c3nc4ccccc4n23)sc(CC)c1C

>  <assignedClass>
inactive

$$$$
>  <cpdSmiles>
COc1cc(Nc2c3ccc(Cl)cc3nc3ccc(OC)cc23)c2ncccc2c1

>  <assignedClass>
inactive

$$$$
>  <cpdSmiles>
N#Cc1c(-c2ccccc2)c(C#N)c2c(C#N)c(N)nn2c1N

>  <assignedClass>
inactive

$$$$
>  <cpdSmiles>
COc1ccc(-c2ccc(-c3ccc(C(=N)N)cn3)s2)cc1

>  <assignedClass>
inactive

$$$$
>  <cpdSmiles>
O=C(N/N=C/c1ccc([N+](=O)[O-])cc1)c1ccc2nc(-c3ccc(Cl)cc3)[nH]c2c1

>  <assignedClass>
inactive

$$$$
>  <cpdSmiles>
C/C(=C(/c1ccc(Cl)cc1)c1ccc(OCCCN(C)C)cc1)c1ccc(Cl)cc1

>  <assignedClass>
inactive

$$$$
>  <cpdSmiles>
COc1ccc2cc(-c3ccc(-c4ccc(C(=N)N)s4)s3)ccc2c1

>  <assignedClass>
inactive

$$$$

* * *

System: HCC-2998 colon
experiment: NCI-60 one-dose screen, 48 h
runConditions: 10 µM unless noted
About 83,000 compounds went through this panel and 20% of them were active in at least one assay; those are over-represented in the sample as a whole. Active and inactive are the calls of the source. The calls were made as follows: active = growth percent below 10; inactive = the rest.
Labels: 1 for active, 0 for inactive

>  <compound>
COc1ccc(/C=C/C(=O)c2ccc(Nc3nc(Nc4ccc(F)cc4)nc(Nc4ccc(Cl)cc4)n3)cc2)cc1

>  <assignedClass>
0

$$$$
>  <compound>
COC(=O)c1c2c(n3ccc(C)cc13)C(=O)c1ccccc1C2=O

>  <assignedClass>
0

$$$$
>  <compound>
COc1ccc2c(c1)c(-c1cc(-c3cn(C)c4ccc(OC)cc34)on1)cn2C

>  <assignedClass>
0

$$$$
>  <compound>
COc1cc(C(=O)C(=O)c2cc(OC)c(O)c(OC)c2)cc(OC)c1O

>  <assignedClass>
0

$$$$
>  <compound>
COC(=O)C1=C(C(=O)Nc2cccnc2)C2OC1(C(Cc1ccccc1)Oc1ccccc1)C1OC21 (stereo not given)

>  <assignedClass>
0

$$$$
>  <compound>
C=CCCC(=O)N1C=CC(=O)[C@H](O)[C@@H]1/C=C/c1ccccc1

>  <assignedClass>
0

$$$$
>  <compound>
Nc1ccc([N+](=O)[O-])cc1N=C/C=C/c1ccccc1

>  <assignedClass>
0

$$$$
>  <compound>
Fc1ccc(CNc2c3ccccc3nc3ccccc23)cc1

>  <assignedClass>
0

$$$$
>  <compound>
CC1CN=C(c2cccc(-c3ccc(-c4ccccc4)o3)c2)N1 (stereo not given)

>  <assignedClass>
1

$$$$
>  <compound>
COc1ccc2nc(SCC(=O)Nc3ccccc3C)[nH]c2c1

>  <assignedClass>
0

$$$$

* * *

Test system: NCI/ADR-RES ovarian
experiment: NCI-60 one-dose screen, 48 h (100 = growth as untreated, 0 = no growth, -100 = all killed)
runConditions: 10 µM unless noted
The panel holds about 83,000 compounds, 20% with a hit somewhere; the sample as a whole holds those more often.

>  <compound>
O=C(Cn1nnc2ccccc21)N/N=C/c1ccccc1F

>  <targetOrSystem>
NCI/ADR-RES ovarian

>  <growth [%]>
109

$$$$
>  <compound>
COc1ccc2c(c1)c(-c1nonc1-c1c[nH]c3ccc(Br)cc13)cn2C

>  <targetOrSystem>
NCI/ADR-RES ovarian

>  <growth [%]>
34.9

$$$$
>  <compound>
CN(C)c1ccc(-c2cc(-c3ccc(Nc4nc(Nc5ccc(Cl)cc5)nc(Nc5ccc(Cl)cc5)n4)cc3)nc(N)c2C#N)cc1

>  <targetOrSystem>
NCI/ADR-RES ovarian

>  <growth [%]>
78

$$$$
>  <compound>
C[C@@H]1CC[C@@]2(OC1)O[C@H]1C[C@H]3[C@@H]4CC=C5C[C@@H](O[C@@H]6O[C@H](CO)[C@@H](O[C@@H]7O[C@@H](CO)[C@H](O)[C@H]7O)[C@H](O)[C@H]6O[C@@H]6O[C@@H](C)[C@H](O)[C@@H](O)[C@H]6O)CC[C@]5(C)[C@H]4CC[C@]3(C)[C@H]1[C@@H]2C

>  <targetOrSystem>
NCI/ADR-RES ovarian

>  <growth [%]>
-85.6

$$$$
>  <compound>
CCCCCCCCCCCCCCCCCCOc1ccccc1CC(=O)NCC[N+]1(C)CCOCC1

>  <targetOrSystem>
NCI/ADR-RES ovarian

>  <growth [%]>
103

$$$$
>  <compound>
C#CC#CC#CC#CC#CC#CC#CC#CC[C@H]1OC[C@H](COC(=O)O[C@@H](C(=O)O[C@H]2C[C@@]3(O)[C@@H](OC(=O)c4ccccc4)[C@@H]4[C@]5(OC(C)=O)CO[C@@H]5C[C@H](O)[C@@]4(C)C(=O)[C@H](OC(C)=O)C(=C2C)C3(C)C)[C@@H](NC(=O)c2ccccc2)c2ccccc2)O1

>  <targetOrSystem>
NCI/ADR-RES ovarian

>  <growth [%]>
106

$$$$
>  <compound>
O=C(/C=C/C12c3ccccc3C(c3ccccc31)C1C(=O)NC(=O)C12)c1ccccn1 (configuration not stated)

>  <targetOrSystem>
NCI/ADR-RES ovarian

>  <growth [%]>
11.3

$$$$

* * *

System: MCF7 breast
experiment: NCI-60 one-dose screen, 48 h (100 = growth as untreated, 0 = no growth, -100 = all killed)
runConditions: 10 µM unless noted
Compounds without any hit were thinned out: in the full panel of roughly 83,000, 20% have a hit.

>  <molecule>
O=C(N=Nc1c(O)[nH]c2ccccc12)Nc1ccc(Cl)cc1

>  <growth (%)>
76.3

$$$$
>  <molecule>
O=C1/C(=C/c2ccc(C(F)(F)F)cc2)COc2ccc(O)c(O)c21

>  <growth (%)>
4.91

$$$$
>  <molecule>
Cn1cc(-c2csc(-c3cn(C)c4ccc(Br)cc34)n2)c2cnccc21

>  <growth (%)>
-74.7

$$$$
>  <molecule>
CCOC(=O)n1cc(-c2nonc2-c2cn(C)c3ccccc23)c2ccccc21

>  <growth (%)>
21.6

$$$$
>  <molecule>
CCCCNC1=C(OCC)C(=O)c2ccccc2C1=O

>  <growth (%)>
76.3

$$$$
>  <molecule>
Fc1ccc2c(c1)c(-c1nc(-c3c[nH]c4ncccc34)cs1)cn2CCCN1CCOCC1

>  <growth (%)>
22

$$$$
>  <molecule>
COc1ccc2nc3ccccc3c(NCc3ccccc3)c2c1

>  <growth (%)>
4.29

$$$$
>  <molecule>
COc1ccc(NC(=O)c2sc3nc(C)c(C(O)c4ccccc4)cc3c2N)cc1 (stereo unspecified)

>  <growth (%)>
19.1

$$$$
>  <molecule>
CCOc1ccc(NC(=O)c2cc(OC)c(OC)c(OC)c2)cc1

>  <growth (%)>
20.8

$$$$
>  <molecule>
N#Cc1c(-c2ccccc2)nc2c(c(-c3ccccc3)nn2-c2ccccc2)c1-c1ccc(N2CCOCC2)cc1

>  <growth (%)>
57.6

$$$$
>  <molecule>
COc1cc(Nc2c3ccc(Cl)cc3nc3ccc(OC)cc23)c2ncccc2c1

>  <growth (%)>
40.3

$$$$
>  <molecule>
Cc1cc(N2CCCCC2)nc(N2CCN(CC(=O)Nc3ccc4c(ccn4Cc4ccccc4)c3)CC2)n1

>  <growth (%)>
44.4

$$$$
>  <molecule>
COc1ccc(C2=Nc3c/c(=C\c4c(O)[nH]c5cc(Cl)ccc45)ccc3=N2)cc1

>  <growth (%)>
36.2

$$$$
>  <molecule>
COc1ccc(-c2cc(-c3ccc(OC)cc3)nc(NCCCNc3ccnc4cc(Cl)ccc34)n2)cc1

>  <growth (%)>
-54.2

$$$$
>  <molecule>
O=C1OCC2=C1C(c1cccc(C(F)(F)F)c1)c1cc3c(cc1N2CCO)OCO3 (stereo unspecified)

>  <growth (%)>
20.9

$$$$
>  <molecule>
CCCCCCCCn1ccc2cc(NC(=O)Cn3cc(CN4CCC(C)CC4)nn3)ccc21

>  <growth (%)>
4.43

$$$$
>  <molecule>
CN1CCN(c2ccc(NC(=O)c3cncnc3Nc3ccc4c(ccn4Cc4cccc(F)c4)c3)cc2)CC1

>  <growth (%)>
12.8

$$$$
>  <molecule>
COc1cc(C(=O)C(=O)c2cc(OC)c(O)c(OC)c2)cc(OC)c1O

>  <growth (%)>
96.5

$$$$
>  <molecule>
Cc1nc2sc(C(=O)Nc3ccccc3)c(N)c2cc1C(=O)/C=C/c1ccccc1

>  <growth (%)>
3.7

$$$$
>  <molecule>
N/C(=N\c1nc2ccccc2s1)NC(=NC1CCCCC1)NC1CCCCC1

>  <growth (%)>
-42.4

$$$$
>  <molecule>
O=[N+]([O-])/C(=C\c1ccco1)c1ccccc1Cl

>  <growth (%)>
38.4

$$$$
